Provenance of the data: paper PMC4595849

Target: hDHODH (Met30-Arg396) (Homo sapiens, UniProt Q02127)
Construct: hDHODH (Met30-Arg396) was expressed and purified in the same manner as described in our recently published work; made in house
Sequence (Q02127 29-395): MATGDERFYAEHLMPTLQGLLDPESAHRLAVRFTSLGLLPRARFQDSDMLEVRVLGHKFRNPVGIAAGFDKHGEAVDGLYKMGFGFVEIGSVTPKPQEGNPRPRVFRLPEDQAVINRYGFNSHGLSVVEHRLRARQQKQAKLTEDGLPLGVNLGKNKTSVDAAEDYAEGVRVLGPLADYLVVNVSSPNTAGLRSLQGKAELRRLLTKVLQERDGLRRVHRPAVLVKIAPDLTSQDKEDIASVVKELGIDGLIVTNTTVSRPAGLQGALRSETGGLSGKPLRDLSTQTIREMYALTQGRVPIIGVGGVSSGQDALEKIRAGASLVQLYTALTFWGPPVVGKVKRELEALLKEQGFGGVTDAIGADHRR
Test: hDHODH enzyme inhibition, DCIP assay
Format: biochemical
Measurement Kind: inhibition of hDHODH (in words)

O=C(O)c1ccccc1/C=N/Nc1nc(-c2ccc(-c3ccccc3)cc2)cs1 | loss of activity
O=C(O)c1cccc(/C=N/Nc2nc(-c3ccccc3Cl)cs2)c1 | loss of activity

----------
Target: hDHODH (Met30-Arg396) (Homo sapiens)
Construct: hDHODH (Met30-Arg396) was expressed and purified in the same manner as described in our recently published work; made in house
Experiment: hDHODH enzyme inhibition, DCIP assay
Type: biochemical
Conditions: hDHODH; mean ± SD of three independent experiments; IC50 measured if inhibition rate at 10 μM was larger than 50%
pIC50: −log10 of the molar value.
Label 0 if pIC50 falls below 6; label 1 in every other case.

Record excerpt, results attached:
Oc1c(Cl)cc(Cl)cc1/C=N/Nc1nc(-c2ccc(Cl)cc2Cl)cs1 [Compound 10] | 0
O=C(O)c1c(F)cccc1/C=N/Nc1nc(-c2ccccc2Cl)cs1 [Compound 24] | 1
Oc1ccccc1/C=N/Nc1nc(-c2ccc(Cl)c(Cl)c2)cs1 [Compound 17] | 0
Nc1cccc(C(=O)O)c1/C=N/Nc1nc(-c2ccccc2Cl)cs1 [Compound 25] | 0

Q. Answer whether pIC50 of Cc1sc(N/N=C/c2ccccc2O)nc1-c1ccccc1 [Compound 15] is greater than or equal to 6.
A. 0

Q. Form field: pIC50 at least 6? Entry: O=C(O)c1cccc(/C=N/Nc2nc(-c3ccccc3Cl)cs2)c1 [Compound 20]
A. 0

Q. Please indicate if the recorded pIC50 for COC(=O)c1ccccc1/C=N/Nc1nc(-c2ccccc2Cl)cs1 [Compound 22] meets or exceeds 6.
A. 0

Q. Answer whether pIC50 of COc1cccc(-c2csc(N/N=C/c3ccccc3C(=O)O)n2)c1 [Compound 27] is greater than or equal to 6.
A. 1
